Would you mind telling me the reported residual activity of each entry?
Target: UniProtKB Q9H0K1
Sequence (Q9H0K1 whole entry, looked up): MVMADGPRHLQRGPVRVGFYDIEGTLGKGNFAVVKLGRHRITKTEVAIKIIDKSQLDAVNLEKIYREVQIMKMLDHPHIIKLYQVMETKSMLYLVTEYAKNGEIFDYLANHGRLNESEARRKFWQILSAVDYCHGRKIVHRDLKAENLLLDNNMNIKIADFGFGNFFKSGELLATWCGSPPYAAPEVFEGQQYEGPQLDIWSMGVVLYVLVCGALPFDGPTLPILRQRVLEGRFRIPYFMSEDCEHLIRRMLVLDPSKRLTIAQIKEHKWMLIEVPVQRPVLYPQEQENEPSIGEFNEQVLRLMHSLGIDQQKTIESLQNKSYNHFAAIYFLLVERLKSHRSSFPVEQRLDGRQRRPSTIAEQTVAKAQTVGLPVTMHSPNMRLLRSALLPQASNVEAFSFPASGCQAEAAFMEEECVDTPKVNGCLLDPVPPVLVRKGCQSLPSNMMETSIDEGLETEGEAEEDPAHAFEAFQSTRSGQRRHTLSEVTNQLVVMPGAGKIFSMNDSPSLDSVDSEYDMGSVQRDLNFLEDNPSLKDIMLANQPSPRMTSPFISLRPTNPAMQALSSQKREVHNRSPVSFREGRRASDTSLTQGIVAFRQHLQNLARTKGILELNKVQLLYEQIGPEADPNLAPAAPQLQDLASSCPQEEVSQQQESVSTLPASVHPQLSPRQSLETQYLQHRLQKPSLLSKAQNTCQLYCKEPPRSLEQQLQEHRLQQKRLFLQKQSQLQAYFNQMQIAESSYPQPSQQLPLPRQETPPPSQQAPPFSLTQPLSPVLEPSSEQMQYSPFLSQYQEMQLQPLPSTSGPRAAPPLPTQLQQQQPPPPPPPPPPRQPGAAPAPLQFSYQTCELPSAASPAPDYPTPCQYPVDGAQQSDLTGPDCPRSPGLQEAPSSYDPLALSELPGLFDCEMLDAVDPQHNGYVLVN
Assay: radiometric filter-binding kinase assay, Kinase HotSpot
Conditions: compound 0.5 µM; ATP 10 µM
Numbers only, in %.

Hi! Can you tell me residual activity for each of these compounds?
1. Nc1ccc2ncnc(NCCc3ccc(Oc4ccccc4)cc3)c2c1
2. CC[n+]1c(/C=C/N(C)c2ccccc2)n(-c2ccccc2)c2ccc(-c3nc4ccccc4s3)cc21
3. CCCC(=O)Oc1ccc2[nH]c(C(=O)c3cc4ccccc4[nH]3)cc2c1
4. CCN(CC)C(=O)c1ccc(Nc2nc(OCC3CCCCC3)c3nc[nH]c3n2)cc1
5. CC#CC(=O)Nc1cc2c(Nc3ccc(F)c(Cl)c3)ncnc2cn1

97.4
112
97.6
75.3
81.3

###

Molecular target: ITK (human)
Experiment: radiometric filter-binding kinase assay, Kinase HotSpot
Details: compound 0.5 µM; ATP 10 µM
reported.endpoint: residual activity (%)
Answers are plain numbers, in %.

Worked cases, residual activity given:
CNC(=O)c1cc(Oc2ccc(NC(=O)Nc3ccc(Cl)c(C(F)(F)F)c3)cc2)ccn1 = 106
N#C/C(=C(/N)Sc1ccc(N)cc1)c1ccccc1C(F)(F)F = 97.4
CC(=O)c1ccc(N2CCOCC2)cc1O = 97
O=C1NC(=O)C(c2cn(CCCn3ccnc3)c3ccccc23)=C1Nc1ccccc1 = 93.9
O=C1NC(=O)c2c1c1c3ccccc3n3c1c1c2c2ccccc2n1C1CCC3O1 = 8.29

Required: residual activity, one value per compound below.
1. COc1ccc(COc2ccc(Cc3cnc(N)nc3N)cc2OC)cc1
2. CCCC(=O)Oc1ccc2[nH]c(C(=O)c3cc4ccccc4[nH]3)cc2c1
3. CCOC(=O)c1c(C)[nH]c(/C=C2\C(=O)Nc3ccccc32)c1C
4. Nc1ncnc2c1c(-c1ccc(Oc3ccccc3)cc1)cn2C1CCCC1
5. O=C1NC(=O)/C(=C/c2ccc3c(c2)OC(F)(F)O3)S1

[98.1, 82, 86.3, 87.1, 92.9]

Lab note: each compound below needs its residual activity filled in.
1. CC[n+]1c(/C=C/N(C)c2ccccc2)n(-c2ccccc2)c2ccc(-c3nc4ccccc4s3)cc21
2. COc1cc2ncnc(Nc3cccc(Cl)c3)c2cc1OC
3. CO[C@H]1CC2CC[C@@H](C)[C@@](O)(O2)C(=O)C(=O)N2CCCC[C@H]2C(=O)OC([C@H](C)C[C@@H]2CC[C@@H](O)[C@H](OC)C2)CC(=O)[C@H](C)/C=C(\C)[C@@H](O)[C@@H](OC)C(=O)[C@H](C)C[C@H](C)/C=C/C=C/C=C/1C (some centres undefined)
4. Cc1[nH]c(/C=C2\C(=O)Nc3ccc(S(=O)(=O)N(C)c4cccc(Cl)c4)cc32)c(C)c1C(=O)N1CCN(C)CC1
5. Nc1ccc2ncnc(NCCc3ccc(Oc4ccccc4)cc3)c2c1

[92.7, 93.8, 92.5, 87.4, 104]

Please report residual activity for every entry that follows.
1. CCN(CC)C(=O)c1ccc(Nc2nc(OCC3CCCCC3)c3nc[nH]c3n2)cc1
2. Cc1ccc(NC2=CC(=O)c3sc(C)nc3C2=O)cc1
3. O=c1cc(N2CCOCC2)oc2c1ccc1ccccc12

1: 57.3; 2: 98.6; 3: 100

What value of residual activity has been recorded for this entry: Nc1cccc(-c2cc3c(Oc4cccc(O)c4)ncnc3[nH]2)c1 102
